assay: Retardation factor in ethyl acetate-pyridine-acetic acid-water at 5:5:1:3 ratio by TLC; type: physicochemical; settings: buffer
Value kind: Rf
API note: the answer field is a bare number with no unit suffix.

entry_smiles=CCCCCCCCCCCCNCCCC[C@@H](NC(=O)[C@H](Cc1ccc(O)cc1)NC(=O)[C@H](CO)NC(=O)[C@H](Cc1c[nH]c2ccccc12)NC(=O)[C@@H]1CCC(=O)N1)C(=O)N[C@@H](CC(C)C)C(=O)N[C@@H](CCCNC(=N)N)C(=O)N1CCC[C@H]1C(=O)NCC(N)=O recorded_value=0.48

Kindly review the next compound as well.
q: Provide Rf value for the following compound: `CCCCCCCCCCCCNCCC[C@@H](NC(=O)[C@H](Cc1ccc(O)cc1)NC(=O)[C@H](CO)NC(=O)[C@H](Cc1c[nH]c2ccccc12)NC(=O)[C@H](Cc1cnc[nH]1)NC(=O)[C@@H]1CCC(=O)N1)C(=O)N[C@@H](CC(C)C)C(=O)N[C@@H](CCCNC(=N)N)C(=O)N1CCC[C@H]1C(=O)NCC`
a: 0.38

###

Documented Rf across a set of molecules
experiment: Retardation factor in 2-butanol-0.1 N acetic acid at 1:1 ratio by TLC; type: physicochemical
Where a SMILES comes first, the peptide text is derived from it. [ ]: non-standard residue; d: D form. pGlu = O=C1CC[C@@H](C(=O)O)N1
Could you respond with only the numeric value?

Answered examples (3):
molecule=CCNC(=O)[C@@H]1CCCN1C(=O)[C@H](CCCNC(=N)N)NC(=O)[C@H](CC(C)C)NC(=O)[C@@H](CCCN)NC(=O)[C@H](Cc1ccc(O)cc1)NC(=O)[C@H](CO)NC(=O)[C@H](Cc1c[nH]c2ccccc12)NC(=O)[C@@H]1CCC(=O)N1 recorded_value=0.36
molecule="CC(C)C[C@H](NC(=O)[C@@H](CCCCN)NC(=O)[C@H](Cc1ccc(O)cc1)NC(=O)[C@H](CO)NC(=O)[C@H](Cc1c[nH]c2ccccc12)NC(=O)[C@@H]1CCC(=O)N1)C(=O)N[C@@H](CCCNC(=N)N)C(=O)N1CCC[C@H]1C(=O)NCC(N)=O ([pGlu]WSY[dK]LRPG-NH2)" recorded_value=0.33
molecule=CCNC(=O)[C@@H]1CCCN1C(=O)[C@H](CCCNC(=N)N)NC(=O)[C@H](CC(C)C)NC(=O)[C@@H](CCCCN)NC(=O)[C@H](Cc1ccc(O)cc1)NC(=O)[C@H](CO)NC(=O)[C@H](Cc1c[nH]c2ccccc12)NC(=O)[C@H](Cc1cnc[nH]1)NC(=O)[C@@H]1CCC(=O)N1 recorded_value=0.27

Moving on to the next molecule.
q: Give me measured Rf, please, for this molecule: `CC(=O)NCCCC[C@@H](NC(=O)[C@H](Cc1ccc(O)cc1)NC(=O)[C@H](CO)NC(=O)[C@H](Cc1c[nH]c2ccccc12)NC(=O)[C@H](Cc1cnc[nH]1)NC(=O)[C@@H]1CCC(=O)N1)C(=O)N[C@@H](CC(C)C)C(=O)N[C@@H](CCCNC(=N)N)C(=O)N1CCC[C@H]1C(=O)NCC(N)=O`
a: 0.34

###

Recorded Rf, one value per entry.
experiment: Retardation factor in 1-butanol-ethyl acetate-acetic acid-water at 1:1:1:1 ratio by TLC; format: physicochemical; conditions: buffer
*1 amine or outer side, *2 acyl side, *3 side chain or, on linkers, in order; H or OH if unused. Where a SMILES comes first, the peptide text is derived from it. [ ]: non-standard residue; d: D form. X1 = CCCCCCCCCCCCNCCC[C@@H](N[*:1])C(=O)[*:2]; pGlu = O=C1CC[C@@H](C(=O)O)N1

Some compounds with known Rf results, for comparison:
compound=CCCCCCCCCCCCNCCC[C@@H](NC(=O)[C@H](Cc1ccc(O)cc1)NC(=O)[C@H](CO)NC(=O)[C@H](Cc1c[nH]c2ccccc12)NC(=O)[C@H](Cc1cnc[nH]1)NC(=O)[C@@H]1CCC(=O)N1)C(=O)N[C@@H](CC(C)C)C(=O)N[C@@H](CCCNC(=N)N)C(=O)N1CCC[C@H]1C(=O)NCC(N)=O recorded_value=0.72
compound=CCNC(=O)[C@@H]1CCCN1C(=O)[C@H](CCCNC(=N)N)NC(=O)[C@H](CC(C)C)NC(=O)[C@@H](CCCCN)NC(=O)[C@H](Cc1ccc(O)cc1)NC(=O)[C@H](CO)NC(=O)[C@H](Cc1c[nH]c2ccccc12)NC(=O)[C@H](Cc1cnc[nH]1)NC(=O)[C@@H]1CCC(=O)N1 recorded_value=0.66
compound=CC(C)C[C@H](NC(=O)[C@@H](CCCN)NC(=O)[C@H](Cc1ccc(O)cc1)NC(=O)[C@H](CO)NC(=O)[C@H](Cc1c[nH]c2ccccc12)NC(=O)[C@H](Cc1cnc[nH]1)NC(=O)[C@@H]1CCC(=O)N1)C(=O)N[C@@H](CCCNC(=N)N)C(=O)N1CCC[C@H]1C(=O)NCC(N)=O recorded_value=0.62

q: Give the reported Rf for this compound. CCCCCCCCCCCCNCCC[C@@H](NC(=O)[C@H](Cc1ccc(O)cc1)NC(=O)[C@H](CO)NC(=O)[C@H](Cc1c[nH]c2ccccc12)NC(=O)[C@@H]1CCC(=O)N1)C(=O)N[C@@H](CC(C)C)C(=O)N[C@@H](CCCNC(=N)N)C(=O)N1CCC[C@H]1C(=O)NCC ([pGlu]WSY[X1]LRP-NHEt)
a: 0.84

###

assay: Retardation factor in 1-butanol-pyridine-0.1% acetic acid at 5:3:11 ratio by TLC; type: physicochemical
Where a SMILES comes first, the peptide text is derived from it. [ ]: non-standard residue; d: D form. pGlu = O=C1CC[C@@H](C(=O)O)N1
// values below are reported Rf
Number only, please.

q: Return the recorded Rf value; entry: CC(C)C[C@H](NC(=O)[C@@H](CCCCN)NC(=O)[C@H](Cc1ccc(O)cc1)NC(=O)[C@H](CO)NC(=O)[C@H](Cc1c[nH]c2ccccc12)NC(=O)[C@@H]1CCC(=O)N1)C(=O)N[C@@H](CCCNC(=N)N)C(=O)N1CCC[C@H]1C(=O)NCC(N)=O ([pGlu]WSY[dK]LRPG-NH2)
a: 0.47

q: Query Rf for `CCNC(=O)[C@@H]1CCCN1C(=O)[C@H](CCCNC(=N)N)NC(=O)[C@H](CC(C)C)NC(=O)[C@@H](CCCN)NC(=O)[C@H](Cc1ccc(O)cc1)NC(=O)[C@H](CO)NC(=O)[C@H](Cc1c[nH]c2ccccc12)NC(=O)[C@@H]1CCC(=O)N1`
a: 0.63

q: Answer with reported Rf of `CC(=O)NCCC[C@@H](NC(=O)[C@H](Cc1ccc(O)cc1)NC(=O)[C@H](CO)NC(=O)[C@H](Cc1c[nH]c2ccccc12)NC(=O)[C@H](Cc1cnc[nH]1)NC(=O)[C@@H]1CCC(=O)N1)C(=O)N[C@@H](CC(C)C)C(=O)N[C@@H](CCCNC(=N)N)C(=O)N1CCC[C@H]1C(=O)NCC(N)=O`
a: 0.57

q: Look up Rf of `CCCCCCCCCCCCNCCCC[C@@H](NC(=O)[C@H](Cc1ccc(O)cc1)NC(=O)[C@H](CO)NC(=O)[C@H](Cc1c[nH]c2ccccc12)NC(=O)[C@@H]1CCC(=O)N1)C(=O)N[C@@H](CC(C)C)C(=O)N[C@@H](CCCNC(=N)N)C(=O)N1CCC[C@H]1C(=O)NCC` and report it.
a: 0.73

###

assay: Retardation factor in 1-butanol-2-propanol-1 N ammonium hydroxide-ethyl acetate at 1:1:2.5:1 ratio by TLC; type: physicochemical
*1 amine or outer side, *2 acyl side, *3 side chain or, on linkers, in order; H or OH if unused. Where a SMILES comes first, the peptide text is derived from it. [ ]: non-standard residue; d: D form. X1 = CCCCCCCCCCCCNCCC[C@@H](N[*:1])C(=O)[*:2]; pGlu = O=C1CC[C@@H](C(=O)O)N1
Exam item: assign yes (1) to entries whose Rf is below 0.4 and no (0) to entries at or above 0.4. Note that a value of exactly 0.4 receives no (0).

Worked examples follow.
molecule=CC(C)C[C@H](NC(=O)[C@@H](CCCN)NC(=O)[C@H](Cc1ccc(O)cc1)NC(=O)[C@H](CO)NC(=O)[C@H](Cc1c[nH]c2ccccc12)NC(=O)[C@@H]1CCC(=O)N1)C(=O)N[C@@H](CCCNC(=N)N)C(=O)N1CCC[C@H]1C(=O)NCC(N)=O class_assignment="yes (1)"
molecule=CCCCCCCCCCCCNCCCC[C@@H](NC(=O)[C@H](Cc1ccc(O)cc1)NC(=O)[C@H](CO)NC(=O)[C@H](Cc1c[nH]c2ccccc12)NC(=O)[C@H](Cc1cnc[nH]1)NC(=O)[C@@H]1CCC(=O)N1)C(=O)N[C@@H](CC(C)C)C(=O)N[C@@H](CCCNC(=N)N)C(=O)N1CCC[C@H]1C(=O)NCC(N)=O class_assignment="no (0)"
molecule=CCNC(=O)[C@@H]1CCCN1C(=O)[C@H](CCCNC(=N)N)NC(=O)[C@H](CC(C)C)NC(=O)[C@@H](CCCCN)NC(=O)[C@H](Cc1ccc(O)cc1)NC(=O)[C@H](CO)NC(=O)[C@H](Cc1c[nH]c2ccccc12)NC(=O)[C@@H]1CCC(=O)N1 class_assignment="yes (1)"

q: # strict comparison: is reported Rf < 0.4? input = CCCCCCCCCCCCNCCC[C@@H](NC(=O)[C@H](Cc1ccc(O)cc1)NC(=O)[C@H](CO)NC(=O)[C@H](Cc1c[nH]c2ccccc12)NC(=O)[C@@H]1CCC(=O)N1)C(=O)N[C@@H](CC(C)C)C(=O)N[C@@H](CCCNC(=N)N)C(=O)N1CCC[C@H]1C(=O)NCC(N)=O ([pGlu]WSY[X1]LRPG-NH2)
a: no (0)

q: API: query returns whether the molecule falls strictly under 0.4 in Rf. Query: `CC(=O)NCCC[C@@H](NC(=O)[C@H](Cc1ccc(O)cc1)NC(=O)[C@H](CO)NC(=O)[C@H](Cc1c[nH]c2ccccc12)NC(=O)[C@H](Cc1cnc[nH]1)NC(=O)[C@@H]1CCC(=O)N1)C(=O)N[C@@H](CC(C)C)C(=O)N[C@@H](CCCNC(=N)N)C(=O)N1CCC[C@H]1C(=O)NCC(N)=O`
a: no (0)

q: Lab note: Rf threshold 0.4. Does this molecule come in strictly under it? `CCCCCCCCCCCCNCCC[C@@H](NC(=O)[C@H](Cc1ccc(O)cc1)NC(=O)[C@H](CO)NC(=O)[C@H](Cc1c[nH]c2ccccc12)NC(=O)[C@H](Cc1cnc[nH]1)NC(=O)[C@@H]1CCC(=O)N1)C(=O)N[C@@H](CC(C)C)C(=O)N[C@@H](CCCNC(=N)N)C(=O)N1CCC[C@H]1C(=O)NCC`
a: no (0)

q: Dear colleague, could you confirm whether Rf of CCCCCCCCCCCCNCCC[C@@H](NC(=O)[C@H](Cc1ccc(O)cc1)NC(=O)[C@H](CO)NC(=O)[C@H](Cc1c[nH]c2ccccc12)NC(=O)[C@@H]1CCC(=O)N1)C(=O)N[C@@H](CC(C)C)C(=O)N[C@@H](CCCNC(=N)N)C(=O)N1CCC[C@H]1C(=O)NCC ([pGlu]WSY[X1]LRP-NHEt) falls below 0.4? Thanks.
a: no (0)
